Hello, the source for this data is patent US12180192B2, in case you need it.

I'd be grateful if you could share measured Emax for these entries.
target: human thyroid receptor alpha ligand-binding domain (LBD) (Homo sapiens, UniProt P10827); construct: purchased Invitrogen; test: TR-FRET thyroid receptor alpha coactivator assay (THR biochemical assay, Assay 1); settings: Table 5, THRα, read-out: Activity category Assay 1 THRα (Emax)
Sequence (P10827 163-410 isoform P10827-2 limits assumed, other chains not shown): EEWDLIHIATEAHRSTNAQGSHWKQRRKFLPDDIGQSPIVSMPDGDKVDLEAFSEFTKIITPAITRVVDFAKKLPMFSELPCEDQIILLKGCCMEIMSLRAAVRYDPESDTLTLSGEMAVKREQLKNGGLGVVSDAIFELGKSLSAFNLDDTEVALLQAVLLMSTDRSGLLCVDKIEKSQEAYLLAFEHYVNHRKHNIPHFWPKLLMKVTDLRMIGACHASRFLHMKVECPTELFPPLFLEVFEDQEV

Which Emax value is on record for Cc1cc(-n2ncc(=O)[nH]c2=O)cc(C)c1Cc1ccc2[nH]cc(C(C)C)c2n1 ?
< 50%

Which Emax value is on record for CC(C)(O)c1cc(Oc2c(Cl)cc(-n3nc(N)c(=O)[nH]c3=O)cc2Cl)n[nH]c1=O ?
< 50%

Which Emax value is on record for CC(C)c1cc(Oc2c(Br)cc(-n3nc(N)c(=O)[nH]c3=O)cc2Br)n[nH]c1=O ?
50 to 75%

Which Emax value is on record for CC1(C)CC(c2cc(Oc3c(Cl)cc(-n4nc(N)c(=O)[nH]c4=O)cc3Cl)n[nH]c2=O)C1 ?
< 50%

Which Emax value is on record for Nc1nn(-c2cc(Cl)c(Oc3n[nH]c(=O)cc3-c3cc4ccccc4cn3)c(Cl)c2)c(=O)[nH]c1=O ?
< 50%

Which Emax value is on record for Cc1cccc(-c2cc(Oc3c(Cl)cc(-n4ncc(=O)[nH]c4=O)cc3Cl)n[nH]c2=O)c1 ?
< 50%

Which Emax value is on record for CC(c1cc(Oc2c(Cl)cc(-n3nc(N)c(=O)[nH]c3=O)cc2Cl)n[nH]c1=O)C1CC(F)(F)C1 (single isomer, unassigned) [Compound 61-A] ?
50 to 75%

Which Emax value is on record for CCn1nc(-c2cc(Cl)c(Oc3cc(C(C)C)c(=O)[nH]n3)c(Cl)c2)c(=O)[nH]c1=O ?
< 50%

Which Emax value is on record for Cc1cc(-n2nc(C#N)c(=O)[nH]c2=O)cc(C)c1Cc1ccc2c(c1)C1(CC1)C(=O)N2 ?
50 to 75%

Which Emax value is on record for CC(C)c1n[nH]c2nnc(Oc3c(Cl)cc(-n4nc(N)c(=O)[nH]c4=O)cc3Cl)cc12 ?
> 75%

Which Emax value is on record for CCCc1c[nH]c2ccc(Oc3c(Cl)cc(-n4nc(C#N)c(=O)[nH]c4=O)cc3Cl)nc12 ?
< 50%

Which Emax value is on record for CC1(C)CN(c2cc(Oc3c(Cl)cc(-n4nc(N)c(=O)[nH]c4=O)cc3Cl)n[nH]c2=O)C1 ?
< 50%

Which Emax value is on record for CC(C)/C=C1\C(=O)Nc2ccc(Oc3c(Cl)cc(-n4nc(N)c(=O)[nH]c4=O)cc3Cl)cc21 ?
< 50%

Which Emax value is on record for Nc1nn(-c2cc(Cl)c(Oc3n[nH]c(=O)cc3-c3ccn4cncc4c3)c(Cl)c2)c(=O)[nH]c1=O ?
< 50%

Which Emax value is on record for Nc1nn(-c2cc(Cl)c(Oc3cc(C4(F)CCCC4)c(=O)[nH]n3)c(Cl)c2)c(=O)[nH]c1=O ?
< 50%
